Biological target: T1, TNFR1 (Homo sapiens, UniProt P19438)
T1 chain: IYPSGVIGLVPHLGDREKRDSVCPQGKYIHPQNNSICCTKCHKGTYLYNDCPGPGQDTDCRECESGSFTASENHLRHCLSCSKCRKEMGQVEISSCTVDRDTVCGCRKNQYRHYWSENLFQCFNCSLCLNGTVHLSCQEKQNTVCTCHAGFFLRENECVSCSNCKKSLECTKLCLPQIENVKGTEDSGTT
Test: yeast display SC50
quantity-kind: apparent Kd (screen) (nM)

Take a look at these entries with their results.
>>> test_value("E54S (designed binder) SMEEEVEKAAKEYEKKKKEAIEKHLEKLKAKDKEAAERFLKELEEAAKEYAKDSAKTMSEEEAKRRAKKYKEKVLLSELSEEEQKEIKEAEEKLVRTILKYVEEAAK")
6.43
>>> test_value("K33D (designed binder) SMEEEVEKAAKEYEKKKKEAIEKHLEKLKAKDDEAAERFLKELEEAAKEYAKDEAKTMSEEEAKRRAKKYKEKVLLSELSEEEQKEIKEAEEKLVRTILKYVEEAAK")
1.05

[A] E104S (designed binder) SMEEEVEKAAKEYEKKKKEAIEKHLEKLKAKDKEAAERFLKELEEAAKEYAKDEAKTMSEEEAKRRAKKYKEKVLLSELSEEEQKEIKEAEEKLVRTILKYVESAAK
[B] E89R (designed binder) SMEEEVEKAAKEYEKKKKEAIEKHLEKLKAKDKEAAERFLKELEEAAKEYAKDEAKTMSEEEAKRRAKKYKEKVLLSELSEEEQKEIKRAEEKLVRTILKYVEEAAK
I need your help: which of the pair A , B has higher apparent Kd (screen)? Mark your selection by writing its label.
B
